Values compiled from patent USRE46585.

# Subject Of Test: T1, FcRn-p3 fusion protein (human, UniProt P55899 24-297; P61769 21-119)
# T1 construct: baculovirus expressed; coated on ELISA wells; not shown: amino terminal part of bacteriophage p3 protein and CVDE protein
# Method Description: phage ELISA pH6 (est.)
Assay Endpoint: Ratio/Fc-WT (fold)
Unit fold implied. Number only.

In plain terms, C6A_78F (other, EU numbering) CPRCSAPELLGGPSVFLFPPKPKDTLMISRNPEVTCVVVDVSHEDPEVKFNWYVDGVEVHNAKTKPREEQYNSTYRVVSVLTVLHQDWLNGKEYKCKVSNKALPAPIEKTISKAKGQPREPQVYTLPPSRDELTKNQVSLTCLVKGFYPSDIVVEWESNGQPENNYKTTPPVLDSDGSFFLYSKLTVDKSRWQQGNVFSCSVMHEALHYHYTQKSLSLSPGK has a documented Ratio/Fc-WT of 30.1

Sample C6A_60C (other, EU numbering) CPLCSAPELLGGPSVFLFPPKPKDTLMISRTPEVTCVVVDVSHEDPEVKFNWYVDGVEVHNAKTKPREEQYNSTYRVVSVLTVLHQDWLDGKEYKCKVSNKALPAPIEKTISKAKGQPREPQVYTLPPSRDELTKNQVSLTCLVKGFYPSDIAVEWESNGQPENNYKTTPPVLDSDGSFFLYSKLTVDKSRWQQGNVFSCSVLHEALHYHYTQKSLSLSPGK ; Ratio/Fc-WT observed: 17.1

Ratio/Fc-WT for T5A_45 (other, EU numbering) CPPCPTPELLGGPSVLLFPPKPKDTLMISRTPEVTCVVEDVSHEDPEVKFNWYVDGVEVHNAKTKPREEQYNSTYRVVSVLTVLHQDWLNGKEYKCKVSNKALPAPIEKTISKAKGQPREPQVYTLPPSRDELTKNQVSLTCLVKGFYPSDITVEWESNGQPENNYKTTPPMLDSDGSFFLYSKLTVDKSRWQQGNVFSCSVMHEALHSHYTQKSLSLSPGK is 14.3

Memo: T4A_37 (other, EU numbering) CPPCSAPELLGGPSVFLFPPKPKDTLMISRTPEVTCVVEDVSHEDPEVKFNWYVDGVEVHNAKTKPREEQYNSTYRVVSVLTVLHQDWLNGKEYKCKVSNKALPAPIEKTISKAKGQPREPQVYTLSPSRDELTKNQVSLTCLVKGFYPSDIVVEWESNGQPENNYKTTPPVLDSDGSFFLYSKLTVDKSRWQQGNVFSCSVMHEALHSHYTQKSLSLSPGK , reported Ratio/Fc-WT: 12.8

Just so you know, measured Ratio/Fc-WT for C6A_78C (other, EU numbering) CPPCSAPELLGGPSVFLFPPKPKDTLMISRNPEVTCVVVDVSHEDPEVKFNWYVDGVEVHNAKTKPREEQYNSTYRVVSVLTVLHQDWLNGKEYKCKVSNKALPAPIEKTISKAKGQPREPQVYTLPPSRDELTKNQVSLTCLVKGFYPSDIVVEWESNGQPENNYKTTPPVLDSDGSFFLYSKLTVDKSRWQQGNVFSCSVMHEALHYHYTQKSLSLSPGK came out at 29.4

Measured Ratio/Fc-WT, C6A_72 (other, EU numbering) CPPCPAPELLGGPSVFLFPPKPKDALMISRTPEVTCVVVDVSHEDPEVKFNWYVDGVEVHNAKTKPREEQYNSTYRVVSVLTVLHQDWLNGKEYKCKVSNKALPAPIEKTISKAKGQPREPQVYTLPPSRDELTKNQVSLTCLVKGFYPSDIAVEWESNGQPEKNYKTTPPVLDSDGSFFLYSKLTVDKSRWQQGNVFSCSVMHEALHYHYTQKSLSLSPGK : 25.7

The recorded Ratio/Fc-WT for entry C5A_65 (other, EU numbering) CPPCTAPELLGGPSVFLFPPKPKDTLMISRTPEVTCVVVDVSHEDPEVKFNWYVDGVEVHNAKTKPREEQYNSTYRVVSVLTVLHQDWLDGKEYKCKVSNKALPVPIEKTISKAKGQPREPQVYTLPPSRDELTKNQVSLTCLVKGFYPSDIAVEWESNGKPENNYKTTPPVLDSDGSFFLYSKLTVDKSRWQQGNVFSCSVMHEALHYHYTQKSLSLSPGK equals 13.5

C6A_78D (other, EU numbering) CPRCPAPELLGGPSVFLFPPKPKDTLMISRNPEVTCVVVDVSHEDPEVKFNWYVDGVEVHNAKTKPREEQYNSTYRVVSVLTVLHQDWLNGKEYKCKVSNKALPAPIEKTISKAKGQPREPQVYTLPPSRDELTKNQVSLTCLVKGFYPSDIVVEWESNGQPENNYKTTPPVLDSDGSFFLYSKLTVDKSRWQQGNVFSCSVMHEALHYHYTQKSLSLSPGK has a reported Ratio/Fc-WT of 90.5

Next:
Entry T4A_42 (other, EU numbering) GPPCPAPELLGGPSVFLFPPKPKDTLMISRTPEVTCVVVDVSHEDPEVKFNWYVDGVEVHNAKTKPREEQYNSTYRVVSVLTVLHQDWLDGKEYKCKVSNKALPAPIEKTISKAKGQPREPQVYTLPPSRDELTKNRVSLTCLVKGFYPSDIAVEWESNGQPENNYKTTPPVLDSDGSFFLYSKLTVDKSRWQQGNVFSCSVMHEALHYHYTQKSLSLSPGK , Ratio/Fc-WT reported as 14.7

For record T5A_55 (other, EU numbering) CPPCLAPELLGGPSVLLLPPKPKDTLMISRTPEVTCVVEDVSHEDPEVKFNWYVDGVEVHNAKTKPREEQYNSTYRVVSVLPVLHQDWLNGKEYKCKVSNKALPAPIEKTISKAKGQPREPQVYTLPPSRDELTKNQVSLTCLVKGFYPSDIVVEWESNGQPENNYKTTPPVLDSDGSFFLYSKLTVDKSRWQQGNVFSCSVMHEALHNHYTQKSLSLSPGK the listed Ratio/Fc-WT is 17.9
